target: T1, human GPC3 on cells (human, UniProt P51654 25-554); test: FACS, GPC3-CHOK1 cells
T1 construct: whole, on cells; over-expressed on CHOK1 cells or endogenous on HEPG2, Hep3B and Huh-7 hepatocellular carcinoma cells; the cell line is named under assay; also called GPC3-CHOK1 cells; human GPC3 over-expressed CHOK1 cells
Let's look at some binders and their measured EC50.
Provide only the numeric value, understood in µg/mL.

binder	EC50 (µg/mL)
52H5D3B8-6#-VH3+VL3 (antibody, V domains shown, humanized) VH: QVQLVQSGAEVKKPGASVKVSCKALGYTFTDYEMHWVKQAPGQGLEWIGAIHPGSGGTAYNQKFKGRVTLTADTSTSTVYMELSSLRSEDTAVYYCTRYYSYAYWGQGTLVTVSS VL: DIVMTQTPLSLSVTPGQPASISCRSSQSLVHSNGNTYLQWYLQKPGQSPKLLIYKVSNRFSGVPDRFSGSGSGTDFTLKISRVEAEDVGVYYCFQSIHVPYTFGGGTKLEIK	0.0408
52H5D3B8-6#-VH3+VL4 (antibody, V domains shown, humanized) VH: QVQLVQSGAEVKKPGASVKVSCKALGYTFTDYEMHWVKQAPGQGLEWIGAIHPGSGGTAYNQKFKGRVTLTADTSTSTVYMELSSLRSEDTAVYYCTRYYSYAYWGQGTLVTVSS VL: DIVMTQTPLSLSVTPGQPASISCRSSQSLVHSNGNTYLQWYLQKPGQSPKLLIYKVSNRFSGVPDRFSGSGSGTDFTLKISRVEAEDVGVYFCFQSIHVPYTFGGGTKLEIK	0.0419

Please report the recorded EC50 for 52H5D3B8-6#-VH4+VL4 (antibody, V domains shown, humanized) VH: QVQLVQSGAEVKKPGASVKVSCKALGYTFTDYEMHWVKQAPGQGLEWIGAIHPGSGGTAYNQKFKGRATMTADKFTSTVYMELSSLRSEDTAVYYCTRYYSYAYWGQGTLVTVSS VL: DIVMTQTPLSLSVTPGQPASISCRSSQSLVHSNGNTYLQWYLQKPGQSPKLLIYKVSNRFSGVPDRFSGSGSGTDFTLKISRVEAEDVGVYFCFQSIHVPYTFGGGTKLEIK .
0.0367
